- targetOfAssay: human OX2R (Homo sapiens)
- Construct: expressed in transfected cells; host or cells: CHO (Chinese hamster ovary) cells, grown under G418 selection
- Sequence (O43614 whole entry): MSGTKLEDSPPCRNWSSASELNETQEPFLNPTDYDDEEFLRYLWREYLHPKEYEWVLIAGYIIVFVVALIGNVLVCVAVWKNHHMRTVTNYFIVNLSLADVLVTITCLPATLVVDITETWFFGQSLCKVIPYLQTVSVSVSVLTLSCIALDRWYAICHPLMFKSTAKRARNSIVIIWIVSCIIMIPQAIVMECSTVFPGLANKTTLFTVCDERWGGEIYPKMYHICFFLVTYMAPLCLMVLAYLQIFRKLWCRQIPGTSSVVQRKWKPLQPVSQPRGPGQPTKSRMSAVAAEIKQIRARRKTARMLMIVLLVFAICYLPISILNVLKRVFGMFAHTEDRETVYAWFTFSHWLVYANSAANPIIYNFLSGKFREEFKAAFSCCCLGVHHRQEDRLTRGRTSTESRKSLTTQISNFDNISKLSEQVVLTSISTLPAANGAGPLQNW
- protocolSummary: IPOne (IP-1 accumulation) assay in CHO cells expressing human OX2R
- Type: cell-based
- details: OX2R; percentage of sample raw value/mean max effect (reference compound at 1 uM with 100% activity)
quantity: Emax, % of reference agonist (%)
Numbers only, in %.

Check out these entries, answers already filled in.
{"columns": ["compound", "measureUnit", "Emax, % of reference agonist"],
 "data": [
  ["CS(=O)(=O)N[C@H]1CCN(C(=O)CC(F)(F)F)[C@H]1CO[C@H]1CC[C@@H](c2ccccc2)CC1 (relative stereo) [Example 20]", "%", 96.4],
  ["COC(=O)N1CC[C@@H](NS(=O)(=O)C(C)C)[C@H]1CO[C@H]1CC[C@@H](c2ccccc2)CC1 (relative stereo) [Example 14]", "%", 101.3],
  ["COC(=O)N1CC[C@@H](NS(=O)(=O)CF)[C@H]1CO[C@H]1CC[C@@H](c2ccccc2)CC1 (relative stereo) [Example 16]", "%", 100.7]
]}

Count: 3. Required value per item: Emax, % of reference agonist.
1. CS(=O)(=O)N[C@H]1CCN(C(=O)OCC(F)F)[C@H]1CO[C@H]1CC[C@@H](c2ccccc2)CC1 (relative stereo) [Example 23]
2. COC(=O)N1CC[C@H](NS(=O)(=O)c2ccccc2)[C@@H]1CO[C@H]1CC[C@@H](c2ccccc2)CC1 (relative stereo) [Example 17]
3. CS(=O)(=O)N[C@H]1CCN(C(=O)OCC(F)F)[C@H]1CO[C@H]1CC[C@@H](c2ccccc2)CC1 [Example 12]

1: 101.3; 2: 82.3; 3: 101.1
